# Species: Rattus norvegicus
# testName: Open TG-GATES - Regimen: Single
# Assay type: toxicity, organism-based, Sprague-Dawley
# Design: regimen Single, gender Male, age 6 weeks
# cond: in vivo, po, 0 mg/kg, 9 h, tissue Plasma, route gavage, dose level Control
Give TC for every item shown.
Answer with a number only, understood to be in mg/dL.

Query CC(=O)N1CCN(c2ccc(OCC3COC(Cn4ccnc4)(c4ccc(Cl)cc4Cl)O3)cc2)CC1 (configuration not stated) yields TC of 67.2

Just so you know, measured TC for O=C(O)COc1nn(Cc2ccccc2)c2ccccc12 came out at 73.4

Just so you know, measured TC for CC(C)Cc1ccc(C(C)C(=O)O)cc1 (configuration not stated) came out at 72.8

The compound CCN(CC)N=O showed TC equal to 84.2

Documented TC of CC(CCc1ccccc1)NCC(O)c1ccc(O)c(C(N)=O)c1 (configuration not stated) : 75.8

The compound listed as CC[C@@H](CO)NCCN[C@@H](CC)CO has a reported TC of 68.4

// TC lookup, compound = CC(=O)Nc1ccc2c(c1)Cc1ccccc1-2 , result: 73.6

----------
# Species: Rattus norvegicus
# testName: Open TG-GATES - Regimen: Single
# Assay type: toxicity, organism-based, Sprague-Dawley
# Set-up: regimen Single, gender Male, age 6 weeks
# cond: in vivo, po, 0 mg/kg, 3 h, tissue Plasma, route gavage, dose level Control
reportedEndpoint: DBIL (mg/dL)
Please state the figure in mg/dL; there is no need to write the unit.

CC(=O)Nc1ccc2c(c1)Cc1ccccc1-2 has a reported DBIL of 0.072

Field DBIL (entry CC(CCc1ccccc1)NCC(O)c1ccc(O)c(C(N)=O)c1 (configuration not stated) ) reads 0.014

Noted for CCN(CC)N=O : its DBIL reads 0.07

Looking up CC(=O)N1CCN(c2ccc(OCC3COC(Cn4ccnc4)(c4ccc(Cl)cc4Cl)O3)cc2)CC1 (configuration not stated) , I see its DBIL listed as 0.004

Measured DBIL of CC(C)Cc1ccc(C(C)C(=O)O)cc1 (configuration not stated) : 0

Measured DBIL, O=C(O)COc1nn(Cc2ccccc2)c2ccccc12 : 0.008

Memo: CC[C@@H](CO)NCCN[C@@H](CC)CO , reported DBIL: 0

----------
# Organism: Rattus norvegicus
# testName: Open TG-GATES - Regimen: Daily Repeat
# Type: toxicity, organism-based, Sprague-Dawley
# Set-up: regimen Daily Repeat, gender Male, age 6 weeks
# cond: in vivo, po, 0 mg/kg, […], tissue Plasma, route gavage, dose level Control, time 28 day
Record form. Attribute: LDH. Fill in for each entry.
// return numeric value only (unit: IU/L, not printed)

Query CC(N)=O [ACETAMIDE] yields LDH of 179.6

For this compound ( CC(=O)N1CCN(c2ccc(OCC3COC(Cn4ccnc4)(c4ccc(Cl)cc4Cl)O3)cc2)CC1 (stereo not drawn) [KETOCONAZOLE] ), measured LDH is 168.4

# LDH of CCN(CC)N=O [N-NITROSODIETHYLAMINE] = 203

----------
# Species on record: Rattus norvegicus
# testName: Open TG-GATES - Regimen: Daily Repeat
# Type: toxicity, organism-based, Sprague-Dawley
# Set-up: regimen Daily Repeat, gender Male, age 6 weeks
# cond: in vivo, po, 0 mg/kg, […], tissue Plasma, route gavage, dose level Control, time 14 day
reportedEndpoint: gamma-GTP (IU/L)
// units = IU/L; emit number, no label

The molecule identified as CC(CCc1ccccc1)NCC(O)c1ccc(O)c(C(N)=O)c1 (stereo not drawn) registered its gamma-GTP at 1

Field gamma-GTP (entry CCN(CC)N=O ) reads 1

The molecule identified as CC(=O)N1CCN(c2ccc(OCC3COC(Cn4ccnc4)(c4ccc(Cl)cc4Cl)O3)cc2)CC1 (stereo not drawn) registered its gamma-GTP at 1

----------
Please go through the items and note down their TG.
# Organism: Rattus norvegicus
# testName: Open TG-GATES - Regimen: Daily Repeat
# Format: toxicity, organism-based, Sprague-Dawley
# Design: regimen Daily Repeat, gender Male, age 6 weeks
# cond: in vivo, po, 0 mg/kg, […], tissue Plasma, route gavage, dose level Control, time 28 day
The figure you give is taken to be in mg/dL; do not add the unit.

Field TG (entry CC(=O)Nc1ccc2c(c1)Cc1ccccc1-2 [2-ACETYLAMINOFLUORENE] ) reads 107.8

The recorded TG for CC(N)=O [ACETAMIDE] is 133.7

Lookup result for CC(C)Cc1ccc(C(C)C(=O)O)cc1 (stereo not drawn) [IBUPROFEN] ; measured TG: 143.8

----------
# Species: Rattus norvegicus
# testName: Open TG-GATES - Regimen: Daily Repeat
# Type: toxicity, organism-based, Sprague-Dawley
# Design: regimen Daily Repeat, gender Male, age 6 weeks
# cond: in vivo, po, 0 mg/kg, […], tissue Plasma, route gavage, dose level Control, time 28 day
reportedEndpoint: TP (g/dL)
# unit: g/dL | format: bare number

// recorded TP for CC(=O)N1CCN(c2ccc(OCC3COC(Cn4ccnc4)(c4ccc(Cl)cc4Cl)O3)cc2)CC1 (centres undefined) [KETOCONAZOLE] : 6

Lab note: measured TP of CC(N)=O [ACETAMIDE] was 6

Item: CCN(CC)N=O [N-NITROSODIETHYLAMINE] | TP: 6.1

The recorded TP for CC(C)Cc1ccc(C(C)C(=O)O)cc1 (centres undefined) [IBUPROFEN] is 6.1

----------
# Species: Rattus norvegicus
# testName: Open TG-GATES - Regimen: Single
# Assay type: toxicity, organism-based, Sprague-Dawley
# Parameters: regimen Single, gender Male, age 6 weeks
# cond: in vivo, po, 0 mg/kg, 9 h, tissue Blood, route gavage, dose level Control
reportedEndpoint: MCH
Quick note: number first, unit second.

Recorded MCH (compound CC(C)Cc1ccc(C(C)C(=O)O)cc1 (stereo not drawn) [IBUPROFEN] ): 21.6 pg

So, CC(=O)Nc1ccc2c(c1)Cc1ccccc1-2 [2-ACETYLAMINOFLUORENE] ? Its MCH was 21.8 pg

Measured MCH of CC(CCc1ccccc1)NCC(O)c1ccc(O)c(C(N)=O)c1 (stereo not drawn) [LABETALOL] : 21.7 pg

----------
# Species: Rattus norvegicus
# testName: Open TG-GATES - Regimen: Daily Repeat
# Format: toxicity, organism-based, Sprague-Dawley
# Design: regimen Daily Repeat, gender Male, age 6 weeks
# cond: in vivo, po, 0 mg/kg, […], tissue Plasma, route gavage, dose level Control, time 28 day
Would you kindly list GLC for each of these compounds?
Numbers only here, please. The scale is mg/dL.

Value of measured GLC for the entry CC(CCc1ccccc1)NCC(O)c1ccc(O)c(C(N)=O)c1 (stereo not drawn) [LABETALOL] : 199

// GLC lookup, compound = CC(C)Cc1ccc(C(C)C(=O)O)cc1 (stereo not drawn) [IBUPROFEN] , result: 196

The compound listed as CC(N)=O [ACETAMIDE] shows GLC equal to 204.8

----------
# Species on record: Rattus norvegicus
# testName: Open TG-GATES - Regimen: Daily Repeat
# Format: toxicity, organism-based, Sprague-Dawley
# Set-up: regimen Daily Repeat, gender Male, age 6 weeks
# cond: in vivo, po, 0 mg/kg, […], tissue Plasma, route gavage, dose level Control, time 7 day
Would you mind telling me the reported AST of each entry?
Note to self: number, then unit, no commentary.

The molecule listed as CCN(CC)N=O has a reported AST of 66.2 IU/L

Record CC(=O)N1CCN(c2ccc(OCC3COC(Cn4ccnc4)(c4ccc(Cl)cc4Cl)O3)cc2)CC1 (stereo not given) , field AST: 69.2 IU/L

get_value(item= CC[C@@H](CO)NCCN[C@@H](CC)CO , readout=AST) returns 69.6 IU/L

Entry CC(C)Cc1ccc(C(C)C(=O)O)cc1 (stereo not given) — recorded AST = 76.6 IU/L

Record CC(CCc1ccccc1)NCC(O)c1ccc(O)c(C(N)=O)c1 (stereo not given) , field AST: 69.8 IU/L

----------
# Organism: Rattus norvegicus
# testName: Open TG-GATES - Regimen: Daily Repeat
# Format: toxicity, organism-based, Sprague-Dawley
# Design: regimen Daily Repeat, gender Male, age 6 weeks
# cond: in vivo, po, 0 mg/kg, 72 h, tissue Plasma, route gavage, dose level Control, time 3 day
What ALP was measured for each of the following?
The reply should contain only the number, in IU/L.

For CC(=O)N1CCN(c2ccc(OCC3COC(Cn4ccnc4)(c4ccc(Cl)cc4Cl)O3)cc2)CC1 (stereo not drawn) [KETOCONAZOLE] the compound record lists ALP as 1650.6

// field: ALP; key: CC(=O)Nc1ccc2c(c1)Cc1ccccc1-2 [2-ACETYLAMINOFLUORENE] ; value = 913.6

ALP for O=C(O)COc1nn(Cc2ccccc2)c2ccccc12 [BENDAZAC] is 1059.4
